biological target: T1, MMP14 catalytic domain (UniProt P50281 112-285); assay: enzyme activity (inhibition) assay with a fluorogenic substrate; various concentrations of N-TIMP2 pre-incubated 1 hour with MMP9 (0.2 nM) or MMP14 (0.5 nM) in 50 mM Tris-HCl, 0.15 M NaCl, 10 mM CaCl2, 0.02% Brij 35, pH 7.5, 37°C; fraction of enzyme activity fitted to a 1:1 binding model to give Kd; conditions: both partners purified
T1 construct: Matrix Metalloproteinase 14 (MMP14), catalytic domain; source: expressed recombinantly and purified as published before [12]
Reported pKd values are given for each entry in this list.
pKd (log units): -log10 of the concentration in mol/L.

The examples below pair each entry with its known result.
N-TIMP2 N38Q (domain or fragment, human, UniProt P16035 27-153, looked up, TIMP2, human, N-terminal domain, residues 1-127) CSCSPVHPQQAFCNADVVIRAKAVSEKEVDSGNDIYGQPIKRIQYEIKQIKMFKGPEKDIEFIYTAPSSAVCGVSLDVGGKKEYLIAGKAEGDGKMHITLCDFIVPWDTLSTTQKKSLNHRYQMGCE	8.47
N-TIMP2 WT (N-terminal domain of Tissue Inhibitor of Metalloproteinases 2, residues 1-127) (domain or fragment, human, UniProt P16035 27-153, looked up, Monomeric fraction used; also called WT N-TIMP2) CSCSPVHPQQAFCNADVVIRAKAVSEKEVDSGNDIYGNPIKRIQYEIKQIKMFKGPEKDIEFIYTAPSSAVCGVSLDVGGKKEYLIAGKAEGDGKMHITLCDFIVPWDTLSTTQKKSLNHRYQMGCE	8.35
N-TIMP2 S4Q (domain or fragment, human, UniProt P16035 27-153, looked up, TIMP2, human, N-terminal domain, residues 1-127; also called S04Q) CSCQPVHPQQAFCNADVVIRAKAVSEKEVDSGNDIYGNPIKRIQYEIKQIKMFKGPEKDIEFIYTAPSSAVCGVSLDVGGKKEYLIAGKAEGDGKMHITLCDFIVPWDTLSTTQKKSLNHRYQMGCE	8.72

Here is the next item to consider.
response.value for N-TIMP2 S4A (domain or fragment, human, UniProt P16035 27-153, looked up, TIMP2, human, N-terminal domain, residues 1-127) CSCAPVHPQQAFCNADVVIRAKAVSEKEVDSGNDIYGNPIKRIQYEIKQIKMFKGPEKDIEFIYTAPSSAVCGVSLDVGGKKEYLIAGKAEGDGKMHITLCDFIVPWDTLSTTQKKSLNHRYQMGCE (field: pKd) = 8.85
